Experiment: Micafungin plasma pharmacokinetics in neonates and young infants (HPLC)
Type: in vivo, human
Conditions: human, iv, 10 mg/kg/day, Patient 1, dose 10 mg/kg/day iv, HPLC, read-out: Plasma values after 1 h
Description: The dosage was formulated as a 2 mg/mL solution in 0.9% saline solution and administered intravenously over 1 h once daily. […] Micafungin plasma and CSF concentrations were measured 1 h before and 1, 2, and 8 h after the end of the infusion. […] Blood picked up was centrifuged at 3000× g, and the plasma residue was stored at 4 °C until analyzed within 6 h or frozen at −20 °C and analyzed within 7 days, as previously reported. […]
*1 amine or outer side, *2 acyl side, *3 side chain or, on linkers, in order; H or OH if unused. Where a SMILES comes first, the peptide text is derived from it. Bridges are numbered along the chain shown (N, C = ends). [ ]: non-standard residue; d: D form. The star is where a group is joined. hTyr(3S-OH,4S-OH,3'-OSO3H) = N[C@H](C(=O)O)[C@H](O)[C@@H](O)c1ccc(O)c(OS(=O)(=O)O)c1; Orn(4R-OH,5R-OH) = O=C([C@H](C[C@@H](O)[C@@H](O)N[*:3])N[*:1])[*:2]; Pro(3S-OH,4S-Me) = C[C@H]1CN[C@H](C(=O)O)[C@H]1O; X1 = CCCCCOc1ccc(-c2cc(-c3ccc(C(=O)*)cc3)no2)cc1; Gln(3R-OH) = NC(=O)C[C@@H](O)[C@H](N)C(=O)O; Hyp = O=C(O)[C@@H]1C[C@@H](O)CN1
MEASUREMENT_KIND: level at 1 h (ng/mL)

[[record]]
compound = "CCCCCOc1ccc(-c2cc(-c3ccc(C(=O)N[C@H]4C[C@@H](O)[C@@H](O)NC(=O)[C@@H]5[C@@H](O)[C@@H](C)CN5C(=O)[C@H]([C@H](O)CC(N)=O)NC(=O)[C@H]([C@H](O)[C@@H](O)c5ccc(O)c(OS(=O)(=O)O)c5)NC(=O)[C@@H]5C[C@@H](O)CN5C(=O)[C@H]([C@@H](C)O)NC4=O)cc3)no2)cc1 [micafungin] (X1-[Orn(4R-OH,5R-OH)]T[Hyp][hTyr(3S-OH,4S-OH,3'-OSO3H)][Gln(3R-OH)][Pro(3S-OH,4S-Me)]; lactam 1-C)"
recorded_measurement = 21700


====

Experiment: Micafungin concentrations in cerebrospinal fluid of infants with Candida meningitis (HPLC)
Type: in vivo
Conditions: human, CSF (ratio to plasma), iv, 8 mg/kg/day, Patient 3, dose 8 mg/kg/day iv; read-out: CSF/plasma ratio after 8 h
Procedure: Micafungin plasma and CSF concentrations were measured 1 h before and 1, 2, and 8 h after the end of the infusion. Sampling overlapped with those required for the clinical monitoring of these critical children. […] Blood picked up was centrifuged at 3000× g, and the plasma residue was stored at 4 °C until analyzed within 6 h or frozen at −20 °C and analyzed within 7 days, as previously reported. Drug concentrations were measured via high-performance liquid chromatography (HPLC). […]
*1 amine or outer side, *2 acyl side, *3 side chain or, on linkers, in order; H or OH if unused. Where a SMILES comes first, the peptide text is derived from it. Bridges are numbered along the chain shown (N, C = ends). [ ]: non-standard residue; d: D form. The star is where a group is joined. hTyr(3S-OH,4S-OH,3'-OSO3H) = N[C@H](C(=O)O)[C@H](O)[C@@H](O)c1ccc(O)c(OS(=O)(=O)O)c1; Orn(4R-OH,5R-OH) = O=C([C@H](C[C@@H](O)[C@@H](O)N[*:3])N[*:1])[*:2]; Pro(3S-OH,4S-Me) = C[C@H]1CN[C@H](C(=O)O)[C@H]1O; X1 = CCCCCOc1ccc(-c2cc(-c3ccc(C(=O)*)cc3)no2)cc1; Gln(3R-OH) = NC(=O)C[C@@H](O)[C@H](N)C(=O)O; Hyp = O=C(O)[C@@H]1C[C@@H](O)CN1
MEASUREMENT_KIND: Kp at 8 h

[[record]]
molecule = "CCCCCOc1ccc(-c2cc(-c3ccc(C(=O)N[C@H]4C[C@@H](O)[C@@H](O)NC(=O)[C@@H]5[C@@H](O)[C@@H](C)CN5C(=O)[C@H]([C@H](O)CC(N)=O)NC(=O)[C@H]([C@H](O)[C@@H](O)c5ccc(O)c(OS(=O)(=O)O)c5)NC(=O)[C@@H]5C[C@@H](O)CN5C(=O)[C@H]([C@@H](C)O)NC4=O)cc3)no2)cc1 [micafungin] (X1-[Orn(4R-OH,5R-OH)]T[Hyp][hTyr(3S-OH,4S-OH,3'-OSO3H)][Gln(3R-OH)][Pro(3S-OH,4S-Me)]; lactam 1-C)"
recorded_measurement = 0.08


====

assay: Micafungin plasma pharmacokinetics in neonates and young infants (HPLC); format: in vivo, human; conditions: human, iv, 8 mg/kg/day, Patient 3, dose 8 mg/kg/day iv, HPLC, read-out: Plasma values after 1 h
*1 amine or outer side, *2 acyl side, *3 side chain or, on linkers, in order; H or OH if unused. Where a SMILES comes first, the peptide text is derived from it. Bridges are numbered along the chain shown (N, C = ends). [ ]: non-standard residue; d: D form. The star is where a group is joined. hTyr(3S-OH,4S-OH,3'-OSO3H) = N[C@H](C(=O)O)[C@H](O)[C@@H](O)c1ccc(O)c(OS(=O)(=O)O)c1; Orn(4R-OH,5R-OH) = O=C([C@H](C[C@@H](O)[C@@H](O)N[*:3])N[*:1])[*:2]; Pro(3S-OH,4S-Me) = C[C@H]1CN[C@H](C(=O)O)[C@H]1O; X1 = CCCCCOc1ccc(-c2cc(-c3ccc(C(=O)*)cc3)no2)cc1; Gln(3R-OH) = NC(=O)C[C@@H](O)[C@H](N)C(=O)O; Hyp = O=C(O)[C@@H]1C[C@@H](O)CN1
MEASUREMENT_KIND: level at 1 h (ng/mL)

[[record]]
molecule = "CCCCCOc1ccc(-c2cc(-c3ccc(C(=O)N[C@H]4C[C@@H](O)[C@@H](O)NC(=O)[C@@H]5[C@@H](O)[C@@H](C)CN5C(=O)[C@H]([C@H](O)CC(N)=O)NC(=O)[C@H]([C@H](O)[C@@H](O)c5ccc(O)c(OS(=O)(=O)O)c5)NC(=O)[C@@H]5C[C@@H](O)CN5C(=O)[C@H]([C@@H](C)O)NC4=O)cc3)no2)cc1 [micafungin] (X1-[Orn(4R-OH,5R-OH)]T[Hyp][hTyr(3S-OH,4S-OH,3'-OSO3H)][Gln(3R-OH)][Pro(3S-OH,4S-Me)]; lactam 1-C)"
recorded_measurement = 27000


====

assay: Micafungin plasma pharmacokinetics in neonates and young infants (HPLC); format: in vivo, human; details: human, iv, 10 mg/kg/day, Patient 2, dose 10 mg/kg/day iv, HPLC, read-out: Plasma values before infusion
*1 amine or outer side, *2 acyl side, *3 side chain or, on linkers, in order; H or OH if unused. Where a SMILES comes first, the peptide text is derived from it. Bridges are numbered along the chain shown (N, C = ends). [ ]: non-standard residue; d: D form. The star is where a group is joined. hTyr(3S-OH,4S-OH,3'-OSO3H) = N[C@H](C(=O)O)[C@H](O)[C@@H](O)c1ccc(O)c(OS(=O)(=O)O)c1; Orn(4R-OH,5R-OH) = O=C([C@H](C[C@@H](O)[C@@H](O)N[*:3])N[*:1])[*:2]; Pro(3S-OH,4S-Me) = C[C@H]1CN[C@H](C(=O)O)[C@H]1O; X1 = CCCCCOc1ccc(-c2cc(-c3ccc(C(=O)*)cc3)no2)cc1; Gln(3R-OH) = NC(=O)C[C@@H](O)[C@H](N)C(=O)O; Hyp = O=C(O)[C@@H]1C[C@@H](O)CN1
MEASUREMENT_KIND: level at -1 h (ng/mL)

[[record]]
molecule = "CCCCCOc1ccc(-c2cc(-c3ccc(C(=O)N[C@H]4C[C@@H](O)[C@@H](O)NC(=O)[C@@H]5[C@@H](O)[C@@H](C)CN5C(=O)[C@H]([C@H](O)CC(N)=O)NC(=O)[C@H]([C@H](O)[C@@H](O)c5ccc(O)c(OS(=O)(=O)O)c5)NC(=O)[C@@H]5C[C@@H](O)CN5C(=O)[C@H]([C@@H](C)O)NC4=O)cc3)no2)cc1 [micafungin] (X1-[Orn(4R-OH,5R-OH)]T[Hyp][hTyr(3S-OH,4S-OH,3'-OSO3H)][Gln(3R-OH)][Pro(3S-OH,4S-Me)]; lactam 1-C)"
measurement_kind = "level at -1 h"
unit_descriptor = "ng/mL"
recorded_measurement = 6700


====

experiment: Micafungin concentrations in cerebrospinal fluid of infants with Candida meningitis (HPLC); assay type: in vivo; settings: human, CSF (ratio to plasma), iv, 7 mg/kg/day, Patient 1, dose 7 mg/kg/day iv; read-out: CSF/plasma ratio before infusion
*1 amine or outer side, *2 acyl side, *3 side chain or, on linkers, in order; H or OH if unused. Where a SMILES comes first, the peptide text is derived from it. Bridges are numbered along the chain shown (N, C = ends). [ ]: non-standard residue; d: D form. The star is where a group is joined. hTyr(3S-OH,4S-OH,3'-OSO3H) = N[C@H](C(=O)O)[C@H](O)[C@@H](O)c1ccc(O)c(OS(=O)(=O)O)c1; Orn(4R-OH,5R-OH) = O=C([C@H](C[C@@H](O)[C@@H](O)N[*:3])N[*:1])[*:2]; Pro(3S-OH,4S-Me) = C[C@H]1CN[C@H](C(=O)O)[C@H]1O; X1 = CCCCCOc1ccc(-c2cc(-c3ccc(C(=O)*)cc3)no2)cc1; Gln(3R-OH) = NC(=O)C[C@@H](O)[C@H](N)C(=O)O; Hyp = O=C(O)[C@@H]1C[C@@H](O)CN1
MEASUREMENT_KIND: Kp

[[record]]
molecule = "CCCCCOc1ccc(-c2cc(-c3ccc(C(=O)N[C@H]4C[C@@H](O)[C@@H](O)NC(=O)[C@@H]5[C@@H](O)[C@@H](C)CN5C(=O)[C@H]([C@H](O)CC(N)=O)NC(=O)[C@H]([C@H](O)[C@@H](O)c5ccc(O)c(OS(=O)(=O)O)c5)NC(=O)[C@@H]5C[C@@H](O)CN5C(=O)[C@H]([C@@H](C)O)NC4=O)cc3)no2)cc1 [micafungin] (X1-[Orn(4R-OH,5R-OH)]T[Hyp][hTyr(3S-OH,4S-OH,3'-OSO3H)][Gln(3R-OH)][Pro(3S-OH,4S-Me)]; lactam 1-C)"
recorded_measurement = 0.05

